System: SW684 (Other Solid Carcinomas);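 note: after 72 h of two-drug dosing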
Experiment: Bliss excess, mean over the matrix (fraction); higher = more synergy
endpoint: Bliss excess

These recorded examples may help you get a feel for the data.
>  <compound>
CS(=O)(=O)CCNCc1ccc(-c2ccc3ncnc(Nc4ccc(OCc5cccc(F)c5)c(Cl)c4)c3c2)o1 [Lapatinib] + Cn1cnc2c(F)c(Nc3ccc(Br)cc3Cl)c(C(=O)NOCCO)cc21 [Selumetinib] (first compound max 10 µM, 7x7, partner max 10 µM)

>  <Bliss excess>
-0.0411

$$$$
>  <compound>
CN(CCO)CC[C@H](CSc1ccccc1)Nc1ccc(S(=O)(=O)NC(=O)c2ccc(N3CCC([C@@H](O)c4ccccc4-c4ccc(Cl)cc4)CC3)cc2)cc1S(=O)(=O)C(F)(F)F [AZD4320] + CC(=O)O[C@H]1C(=O)[C@@]2(C)[C@H]([C@H](OC(=O)c3ccccc3)[C@]3(O)C[C@H](OC(=O)[C@H](O)[C@@H](NC(=O)c4ccccc4)c4ccccc4)C(C)=C1C3(C)C)[C@]1(OC(C)=O)CO[C@@H]1C[C@@H]2O [Paclitaxel] (first compound max 1 µM, 7x7, partner max 3 µM)

>  <Bliss excess>
0.164

$$$$
>  <compound>
NC1(C(=O)N[C@@H](CCO)c2ccc(Cl)cc2)CCN(c2ncnc3[nH]ccc23)CC1 [Capivasertib] + CC(=O)c1c(C)c2cnc(Nc3ccc(N4CCNCC4)cn3)nc2n(C2CCCC2)c1=O [Palbociclib] (first compound max 10 µM, 7x7, partner max 10 µM)

>  <Bliss excess>
0.0176

$$$$
>  <compound>
Cc1c2c(nn1C)CSCc1cc(n(C)n1)CSc1cc(c3ccccc3c1)OCCCc1c(C(=O)O)n(C)c3c-2c(Cl)ccc13 [AZD5991] + C[C@@H]1COCCN1C2=NC(=NC(=C2)C3(CC3)[S@](=N)(=O)C)C4=C5C=CNC5=NC=C4 [AZD6738] (first compound max 1 µM, 7x7, partner max 10 µM)

>  <Bliss excess>
0.0472

$$$$
>  <compound>
CC1(C)CCC(CN2CCN(c3ccc(C(=O)NS(=O)(=O)c4ccc(NCC5CCOCC5)c([N+](=O)[O-])c4)c(Oc4cnc5[nH]ccc5c4)c3)CC2)=C(c2ccc(Cl)cc2)C1 [Venetoclax] + Cc1cc2ncnn2cc1Nc1ncc2c(n1)n(C1CCOCC1)c(=O)n2C [AZD7648] (first compound max 1 µM, 7x7, partner max 10 µM)

>  <Bliss excess>
-0.0627

$$$$

Continue with the compound presented below.
Challenge: Give Bliss excess (SW684 (Other Solid Carcinomas)) of the following compound: CN(CCO)CC[C@H](CSc1ccccc1)Nc1ccc(S(=O)(=O)NC(=O)c2ccc(N3CCC([C@@H](O)c4ccccc4-c4ccc(Cl)cc4)CC3)cc2)cc1S(=O)(=O)C(F)(F)F [AZD4320] + CN(C)CCCOc1ccc(-c2ccc3ncc4c(c3c2)n(C2CCOCC2)c(=O)n4C)cn1 [AZD0156] (first compound max 1 µM, 7x7, partner max 1 µM)
Response given: -0.0641
